Data credit: patent US5776932A

Target: arachidonate-5-lipoxygenase (Rattus norvegicus, UniProt P12527)
Construct: using prepared macrophages from Wistar rats; endogenous in cells
Sequence (P12527 1-673): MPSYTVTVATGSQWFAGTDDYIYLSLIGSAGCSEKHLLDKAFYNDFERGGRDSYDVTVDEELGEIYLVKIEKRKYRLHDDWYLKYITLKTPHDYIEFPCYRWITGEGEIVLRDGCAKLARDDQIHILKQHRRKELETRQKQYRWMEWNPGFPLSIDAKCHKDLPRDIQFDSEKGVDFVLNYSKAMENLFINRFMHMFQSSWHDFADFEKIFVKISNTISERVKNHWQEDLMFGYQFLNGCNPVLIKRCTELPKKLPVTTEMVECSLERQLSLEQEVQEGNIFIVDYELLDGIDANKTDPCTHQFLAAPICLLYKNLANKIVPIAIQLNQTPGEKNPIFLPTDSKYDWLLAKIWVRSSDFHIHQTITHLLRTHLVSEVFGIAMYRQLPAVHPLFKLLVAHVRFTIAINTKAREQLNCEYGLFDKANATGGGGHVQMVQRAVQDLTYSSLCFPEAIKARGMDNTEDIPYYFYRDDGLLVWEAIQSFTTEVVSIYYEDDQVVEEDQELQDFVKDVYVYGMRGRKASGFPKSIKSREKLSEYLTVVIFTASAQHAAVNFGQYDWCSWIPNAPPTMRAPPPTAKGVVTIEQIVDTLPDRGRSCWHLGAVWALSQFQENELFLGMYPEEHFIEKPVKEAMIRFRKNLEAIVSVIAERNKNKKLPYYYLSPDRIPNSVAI
Assay: Inhibition of 5-lipoxygenase in prepared macrophages from Wistar rats
Details: quadruple determinations, mean IC50, read-out: IC50 (50% inhibition of 5-lipoxygenase)
pIC50: −log10 of the molar value.
readout-type: pIC50

Past entries and their recorded results:
[[record]]
compound = "COc1ccc2c(c1)c(O)nn2CCCC(=O)c1ccc(F)cc1 [Example 42]"
readout_type = "pIC50"
result = 6.17

[[record]]
compound = "COc1ccc2c(c1)c(O)nn2Cc1ccc(OCc2ccc3ccccc3n2)cc1 [Example 50]"
readout_type = "pIC50"
result = 7.36

[[record]]
compound = "O=C(Nc1ccc(Cl)c(Cl)c1)Nc1ccc2c(c1)c(O)nn2Cc1ccc(Cl)cc1 [Example 61]"
readout_type = "pIC50"
result = 6.56


A = COc1ccc2c(c1)c(O)nn2Cc1ccc(Br)cc1 [Example 11]
B = COc1ccc2c(c1)c(O)nn2Cc1ccc(Cl)cc1Cl [Example 7]
Select the item whose pIC50 value is smaller, choosing between A and B . Use the label to indicate which entry you chose.
A
(A: 6.12, B: 7.00)

P = COc1ccc2c(c1)c(O)nn2Cc1cccs1 [Example 24]
Q = COc1ccc2c(c1)c(O)nn2Cc1cccc(Cl)c1F [Example 10]
Sorting by pIC50 in descending order, would P or Q appear first? Lab note: record the label of whichever item you select.
P

---

molecular target: arachidonate-5-lipoxygenase (Rattus norvegicus); construct: using prepared macrophages from Wistar rats; endogenous in cells; host or cells: prepared macrophages from Wistar rats; experiment: Inhibition of 5-lipoxygenase in prepared macrophages from Wistar rats; format: cell-based; settings: quadruple determinations, mean IC50, read-out: IC50 (50% inhibition of 5-lipoxygenase)
readout-type: IC50 (nM)

// solved cases for IC50 follow
[[record]]
smi = "COc1ccc2c(c1)c(O)nn2Cc1ccc(OCc2ccccc2)cc1"
test_system = "arachidonate-5-lipoxygenase (Rattus norvegicus)"
readout_type = "IC50"
endpoint_unit = "nM"
result = 171

[[record]]
smi = "COc1ccc2c(c1)c(O)nn2CC=Cc1ccccc1"
test_system = "arachidonate-5-lipoxygenase (Rattus norvegicus)"
readout_type = "IC50"
endpoint_unit = "nM"
result = 299

[[record]]
smi = "COc1ccc2c(c1)c(O)nn2Cc1ccc(-c2ccccc2)cc1"
test_system = "arachidonate-5-lipoxygenase (Rattus norvegicus)"
readout_type = "IC50"
endpoint_unit = "nM"
result = 257


I = COc1ccc2c(c1)c(O)nn2Cc1ccc(Cl)cc1
II = COc1ccc2c(c1)c(O)nn2Cc1cc2c(cc1Cl)OCO2
Given I and II , report the one with the higher recorded IC50. # reply format: chosen label
II

---

target: arachidonate-5-lipoxygenase (Rattus norvegicus); construct: using prepared macrophages from Wistar rats; endogenous in cells; assay: Inhibition of 5-lipoxygenase in prepared macrophages from Wistar rats; conditions: quadruple determinations, mean IC50, read-out: IC50 (50% inhibition of 5-lipoxygenase)
readout-type: IC50 (nM)

Before answering, review these 2 worked examples.
[[record]]
compound = "COc1ccc2c(c1)c(O)nn2Cc1ccccc1Cl"
endpoint_unit = "nM"
result = 710

[[record]]
compound = "COc1ccc2c(c1)c(O)nn2Cc1ccc(C(C)(C)C)cc1"
endpoint_unit = "nM"
result = 696


A = COc1ccc2c(c1)c(O)nn2Cc1c(Cl)cccc1Cl
B = COc1ccc2c(c1)c(O)nn2Cc1ccc2ccccc2c1
C = COc1ccc2c(c1)c(O)nn2Cc1ccc(OCc2ccc3ccccc3n2)cc1 [Example 49]
Order the entries by their reported IC50, beginning at the minimum. Answer format: the labels, in the requested order.
C, B, A
(C: 86 nM, B: 265 nM, A: 750 nM)

---

molecular target: arachidonate-5-lipoxygenase (Rattus norvegicus, UniProt P12527); construct: using prepared macrophages from Wistar rats; endogenous in cells; assay: Inhibition of 5-lipoxygenase in prepared macrophages from Wistar rats; conditions: quadruple determinations, mean IC50, read-out: IC50 (50% inhibition of 5-lipoxygenase)
readout-type: IC50 (nM)

Completed entries (count: 4):
[[record]]
smi = "COc1ccc2c(c1)c(O)nn2CCOc1ccccc1"
result = 745

[[record]]
smi = "COc1ccc2c(c1)c(O)nn2CCC(=O)c1ccccc1"
result = 150

[[record]]
smi = "COc1ccc2c(c1)c(O)nn2CCCOc1ccccc1"
result = 655

[[record]]
smi = "COc1ccc2c(c1)c(O)nn2Cc1cccc(Cl)c1"
result = 470


P = Oc1ccc2c(c1)c(O)nn2Cc1ccc(Cl)c(Cl)c1
Q = COc1ccc2c(c1)c(O)nn2Cc1ccc(Cl)c(Cl)c1
R = Oc1ccc2c(c1)c(O)nn2Cc1ccc(Cl)cc1Cl
Hey, quick one: sort these by IC50, largest value first please. # the answer lists labels in the order requested
P, Q, R
(P: 748 nM, Q: 410 nM, R: 258 nM)
